# Protocol: Cytotoxicity against mouse MA-10 cells at 100 uM after 2 hrs by MTT assay
# Assay type: cell-based
# Particulars: ma-10, 2 h
Recorded Endpoint: Activity

O=C1NC(=O)C(c2cn3c4c(cc(F)cc24)CNCC3)=C1c1coc2ccccc12    Toxic
O=C1NC(=O)C(c2cn3c4c(cc(Br)cc24)CNCC3)=C1c1coc2ccccc12    Toxic
COCCn1cc(C2=C(c3coc4ccccc34)C(=O)NC2=O)c2cc(F)c(F)cc21    Toxic
Cn1cc(C2=C(c3coc4ccccc34)C(=O)NC2=O)c2cc(Br)cnc21    Non-toxic
O=C1NC(=O)C(c2cn3c4c(cc(F)cc24)CN(C(=O)N2CCOCC2)CC3)=C1c1coc2ccccc12    Toxic
COCCc1cccc2c(C3=C(c4coc5ccccc45)C(=O)NC3=O)cn(CCOC)c12    Toxic

## Input Identify measured Activity associated with O=C1NC(=O)C(c2cn3c4c(cccc24)CN(C(=O)c2cnccn2)CC3)=C1c1coc2ccccc12
## Output Toxic

## Input Identify measured Activity associated with COCCn1cc(C2=C(c3coc4ccccc34)C(=O)NC2=O)c2cc(Br)cnc21
## Output Non-toxic

## Input Identify measured Activity associated with Cn1cc(C2=C(c3coc4ccccc34)C(=O)NC2=O)c2cc(Br)ccc21
## Output Non-toxic

## Input Identify measured Activity associated with O=C1NC(=O)C(c2cn3c4c(cc(F)cc24)CN(C(=O)N2CCC(N4CCCCC4)CC2)CC3)=C1c1coc2ccccc12
## Output Toxic

## Input Identify measured Activity associated with O=C1NC(=O)C(c2cn3c4c(cccc24)CN(C(=O)Cc2ccncc2)CC3)=C1c1coc2ccccc12
## Output Toxic
